B1: HDV Ribozyme (parent)
chain: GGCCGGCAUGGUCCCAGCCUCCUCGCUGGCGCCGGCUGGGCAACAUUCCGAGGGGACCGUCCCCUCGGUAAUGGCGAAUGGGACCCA

Variants of: B1
PROTOCOL SUMMARY: self-cleavage, relative activity (ratio to wild type); higher = more cleavage; co-transcriptional
ATTRIBUTE MEASURED: self-cleavage
Could you respond with only the numeric value?

Worked cases, self-cleavage given:
G10C A56G | 0.532
A70U A71U | 0.98

### Prompt // query self-cleavage value for entry C32G U46G
### Response 0

### Prompt // query self-cleavage value for entry C58G C84G
### Response 0.554

### Prompt // query self-cleavage value for entry A45U G81U
### Response 0.277

### Prompt // query self-cleavage value for entry C7U G81C
### Response 0.383

### Prompt // query self-cleavage value for entry G35A G80C
### Response 0.162

### Prompt // query self-cleavage value for entry C22U C64A
### Response 0.786

### Prompt // query self-cleavage value for entry C41G G81U
### Response 0.166

### Prompt // query self-cleavage value for entry G1C G39A
### Response 0.203

### Prompt // query self-cleavage value for entry G25A A45C
### Response 0.227

### Prompt // query self-cleavage value for entry `C58U`
### Response 1.04

### Prompt // query self-cleavage value for entry U47A A77C
### Response 0

### Prompt // query self-cleavage value for entry U12A C66G
### Response 0.375

### Prompt // query self-cleavage value for entry U27G G29A
### Response 0.283

### Prompt // query self-cleavage value for entry `C58G`
### Response 0.964
